Just for reference, PubChem BioAssay (NCI) is where these values come from.

# Tested on: MDA-MB-435 melanoma
# PROCEDURE_SUMMARY: NCI-60 one-dose screen, 48 h (100 = growth as untreated, 0 = no growth, -100 = all killed)
# EXPERIMENTAL_CONDITIONS: 10 µM unless noted
This is part of a sample that, as a whole, favours compounds with a hit. Of some 83,000 tested, about 20% had one in any assay. Calls of active or inactive are those of the source. How the source made its calls: active means growth percent below 10; inactive means the rest.
REPORTED_ENDPOINT: growth

smiles_structure=CC(C)n1c(NCCc2ccc(O)c(O)c2)nc2c1c(=O)n(C)c(=O)n2C reported_endpoint=growth obs_value="98.5% (inactive)"
smiles_structure=O=C(Nc1nc2cccc(-c3ccc(CN4CCS(=O)(=O)CC4)cc3)n2n1)C1CC1 reported_endpoint=growth obs_value="91.3% (inactive)"
smiles_structure=CN1CCC(COc2cnc(-c3cccc(Cn4nc(-c5cccc(C#N)c5)ccc4=O)c3)nc2)CC1 reported_endpoint=growth obs_value="53.8% (inactive)"
smiles_structure=Cc1cc2c(-c3nc4ccccn4c3NC34CC5CC(CC(C5)C3)C4)c(O)c(O)cc2c(O)c1-c1c(C)cc2c(-c3nc4ccccn4c3NC34CC5CC(CC(C5)C3)C4)c(O)c(O)cc2c1O reported_endpoint=growth obs_value="16.5% (inactive)"

* * *

# Tested on: NCI-H522 lung
# PROCEDURE_SUMMARY: NCI-60 one-dose screen, 48 h (100 = growth as untreated, 0 = no growth, -100 = all killed)
# EXPERIMENTAL_CONDITIONS: 10 µM unless noted
The panel holds about 83,000 compounds, 20% with a hit somewhere; the sample as a whole holds those more often.
Response key: yes means growth >= 30%; no means growth < 30%.

molecule=COc1cc2cc(NCc3ccc(F)cc3)nc(C)c2cc1OC label_class=yes
molecule=CC(=O)C(C(C)=O)C(c1ccccc1)C(C(C)=O)C(C)=O label_class=yes
molecule=COC(=O)N[C@@H](C)CNc1nccc(-c2cn(C(C)C)nc2-c2cc(Cl)cc(NS(C)(=O)=O)c2F)n1 label_class=yes
molecule=CNC(=O)c1cc(Oc2cccc3nc(Nc4ccc(Cl)c(F)c4)ccc23)ccn1 label_class=yes
molecule=CN1CCC(COc2cnc(-c3cccc(Cn4nc(-c5cccc(C#N)c5)ccc4=O)c3)nc2)CC1 label_class=no
molecule=Cc1cc([C@@H](C)Nc2ccccc2C(=O)O)c2nc(N3CCOCC3)cc(=O)n2c1 label_class=yes
molecule=Cn1ncc(Cl)c1-c1cc(C(=O)N[C@H](CN)Cc2ccc(F)c(F)c2)oc1Cl label_class=no
molecule="CCCCCCC1(/C=N/NC(N)=O)NC(=O)NC1=O (stereo not given)" label_class=yes
molecule="COc1ccc(-c2cc3c(C)nc(N)nc3n(C3CCC(OCCO)CC3)c2=O)cn1 (stereo not given)" label_class=no
molecule=O=C(Nc1ccc(C(=O)Nc2ccc(C3=NCCCN3)cc2)cc1)Nc1ccc(C2=NCCCN2)cc1 label_class=yes
molecule=O=[N+]([O-])c1cc(Br)cc2c1[nH]c1ccc(Br)cc12 label_class=yes
molecule=CNC(=O)c1ccccc1Nc1nc(Nc2ccc3c(c2OC)CCC[C@H](N2CCN(CCO)CC2)C3)ncc1Cl label_class=no
molecule="C=CC(=O)N(C)[C@H]1C[C@H]2OC(C)(C1OC)n1c3ccccc3c3c4c(c5c6ccccc6n2c5c31)C(=O)NC4 (stereo not given in full)" label_class=no
molecule=COc1cc(-c2cc(-c3ccc(Nc4ccnc5cc(Cl)ccc45)cc3)nc(N3CCOCC3)n2)cc(OC)c1OC label_class=no
molecule=COc1ccc(-c2nocc2-c2cc(OC)c(OC)c(OC)c2)cc1 label_class=no
molecule=COc1cc2nc(Nc3cccc(Cl)c3)nc(N)c2cc1OC label_class=yes
molecule=Nc1nc(N)c2nc(-c3cccc(O)c3)c(-c3cccc(O)c3)nc2n1 label_class=yes
molecule=C[C@H]1Oc2cc(cnc2N)-c2c(nn(C)c2C#N)CN(C)C(=O)c2ccc(F)cc21 label_class=yes
molecule=O=C(NOCCO)c1ccc2cncn2c1Nc1ccc(I)cc1F label_class=yes
molecule=CCN1CCN(Cc2ccc(Cc3ncc(F)c(-c4cc(F)c5nc(C)n(C(C)C)c5c4)n3)nc2)CC1 label_class=yes
